Assay: qHTS Assay for Spectroscopic Profiling in 4-MU Spectral Region
Details: compound autofluorescence, 340/450 nm, 4-MU equivalents
About 6,200 (11%) of roughly 59,000 compounds were called active. Inconclusive results (about 9%) are left out. Cut-off read from the data, not from the text of the source: active = max dye-equivalent concentration above about 10 nM; inconclusive = mostly about 1.1 nM to 9.6 nM; inactive = weaker than that. For the sample, actives were picked, then their nearest neighbours and some compounds at random.
Labels: active, inactive

[[record]]
compound = "COc1ccc(CNc2ncnc3ccc(-c4cccnc4)cc23)c(OC)c1"
group_label = "inactive"

[[record]]
compound = "O=C(c1ccccc1-c1ccccc1)N1CCOCC1"
group_label = "inactive"

[[record]]
compound = "CCCCCOC(=O)NCCOC(=O)Nc1ccc(C(=O)OCC)cc1"
group_label = "inactive"

[[record]]
compound = "COc1ccc(Cl)cc1S(=O)(=O)Nc1cccc(C(=O)O)c1"
group_label = "inactive"

[[record]]
compound = "Cc1noc(C)c1S(=O)(=O)Nc1ccc(C(=O)O)cc1"
group_label = "inactive"

[[record]]
compound = "COc1ccccc1CNC(=O)C1CCN(c2nc3ccccc3o2)CC1"
group_label = "inactive"

[[record]]
compound = "COC(=O)N1CCC[C@@]2(CCN(C(=O)NC(C)C)C2)C1"
group_label = "inactive"

[[record]]
compound = "COc1cc2nc(N3CCN(C(=O)[C@@H]4CCCO4)CC3)nc(N)c2cc1OC"
group_label = "active"

[[record]]
compound = "CNc1nc(-c2ccccc2OC)nc2ccccc12"
group_label = "inactive"

[[record]]
compound = "O=C(C1CCCO1)N1CCC(c2nc3ccccc3[nH]2)CC1 (stereo unspecified)"
group_label = "inactive"

[[record]]
compound = "CC(=O)OCC(=O)[C@@]1(O)CC[C@@H]2[C@H]3CCC4=CC(=O)C=C[C@]4(C)[C@]3(F)[C@@H](O)C[C@@]21C"
group_label = "inactive"


====

Experiment: qHTS Assay for Spectroscopic Profiling in 4-MU Spectral Region
Settings: compound autofluorescence, 340/450 nm, 4-MU equivalents
Text: NIH Molecular Libraries Screening Centers Network [MLSCN] NIH Chemical Genomics Center [NCGC] […] While the most informative fluorescent profiling data set is obtained by performing a full excitation and emission scan of each well by using a monochromator-based plate reader, such an approach is practical only on a very limited scale as scanning each well requires long time. […]
Out of some 59,000 compounds screened, about 6,200 (11%) were called active. Not shown: some 9% with an inconclusive outcome. Rule as the data show it: active = max dye-equivalent concentration above about 10 nM; inconclusive = mostly about 1.1 nM to 9.6 nM; inactive = weaker than that. The entries come from a sample that favours actives as a whole.
Labels: active, inactive

[[record]]
molecule = "O=C(CSc1nnc(-c2ccccc2)o1)N1CCOCC1"
group_label = "inactive"

[[record]]
molecule = "Cc1ccc2nc(NC3=NCN(CCc4ccccc4)CN3)nc(C)c2c1"
group_label = "inactive"

[[record]]
molecule = "COc1ccc2oc(C)c(NC(C)=O)c2c1"
group_label = "inactive"

[[record]]
molecule = "COc1ccc(N2CCN(C(c3cc4ccc(C)cc4[nH]c3=O)c3nnnn3C3CCCC3)CC2)cc1 (stereo unspecified)"
group_label = "inactive"

[[record]]
molecule = "Cc1nn(C)c(C)c1S(=O)(=O)N1CCc2ccccc21"
group_label = "inactive"

[[record]]
molecule = "COCCn1nnnc1C(c1ccccc1Cl)N1CCN(c2ccccc2OC)CC1 (stereo unspecified)"
group_label = "inactive"

[[record]]
molecule = "COC(=O)COc1ccc2oc(=O)cc(C)c2c1"
group_label = "active"

[[record]]
molecule = "COCCn1nnnc1C(c1cc2ccc(OC)cc2[nH]c1=O)N1CCc2ccccc2C1 (stereo unspecified)"
group_label = "active"

[[record]]
molecule = "Cc1cc(C)c2[nH]c(=O)c(C(c3nnnn3Cc3ccc4c(c3)OCO4)N3CCCC3)cc2c1 (stereo unspecified)"
group_label = "inactive"

[[record]]
molecule = "CCn1c(CSc2ncccn2)nnc1SCC(=O)N1c2ccccc2CC1C (stereo unspecified)"
group_label = "inactive"

[[record]]
molecule = "O=C(COC(=O)c1ccc(Oc2ccccc2)cc1)Nc1nnc(-c2ccccc2)o1"
group_label = "inactive"

